Data provenance is ChEMBL document CHEMBL4219038.

# Test system: MCF-10A
# experiment-notes: Antiproliferative activity against human MCF10A cells
# Format: cell-based
reported-property: IC50 (µM)
# unit: µM | format: bare number

Field request: IC50 | item: "Cc1nn(-c2nc(-c3ccc(Cl)c(Cl)c3)c(SC(C)C)s2)c(C(=O)O)c1-c1cc(Cl)cc(Cl)c1"
35

====

# experiment-notes: Clearance in iv dosed mouse
# Assay type: ADME, organism-based
# details: in vivo
reported-property: clearance (mL/min/kg)
Please reply with the bare figure in mL/min/kg and do not write the unit itself.

I'd like to know its clearance. The compound in question is "Cc1nn(-c2nc(-c3ccc(Cl)c(Cl)c3)c(SC(C)C)s2)c(C(=O)O)c1-c1cc(Cl)cc(Cl)c1"
0.8
